# test protocol: Kinetic solubility of the compound in phosphate buffer at pH 6.5 after 30 mins by nephelometry
# Type: physicochemical
# applied conditions: read-out: Kinetic_solubility
So I've got a bunch of molecules here, and I need their solubility kinetic at 0.5 h values.

[
  {
    "molecule": "NS(=O)(=O)Nc1ccc(C(=O)NC(C(=O)NO)c2ccc(-c3cc(F)c(F)c(F)c3)cc2)cc1 (configuration not stated)",
    "parameter": "solubility kinetic at 0.5 h",
    "val": "0.0125 to 0.025 mg/mL"
  }
]

Exercise: Any idea what solubility kinetic at 0.5 h was measured for CS(=O)(=O)Nc1ccc(C(=O)NC(C(=O)NO)c2ccc(-c3cc(F)c(F)c(F)c3)cc2)cc1 (configuration not stated) ?
Key: 0.0125 to 0.025 mg/mL

====

So I've got a bunch of compounds here, and I need their Ki values.
# target under test: Aminopeptidase N (Homo sapiens, UniProt P15144)
# Sequence (P15144 whole entry, the tested form may be a part): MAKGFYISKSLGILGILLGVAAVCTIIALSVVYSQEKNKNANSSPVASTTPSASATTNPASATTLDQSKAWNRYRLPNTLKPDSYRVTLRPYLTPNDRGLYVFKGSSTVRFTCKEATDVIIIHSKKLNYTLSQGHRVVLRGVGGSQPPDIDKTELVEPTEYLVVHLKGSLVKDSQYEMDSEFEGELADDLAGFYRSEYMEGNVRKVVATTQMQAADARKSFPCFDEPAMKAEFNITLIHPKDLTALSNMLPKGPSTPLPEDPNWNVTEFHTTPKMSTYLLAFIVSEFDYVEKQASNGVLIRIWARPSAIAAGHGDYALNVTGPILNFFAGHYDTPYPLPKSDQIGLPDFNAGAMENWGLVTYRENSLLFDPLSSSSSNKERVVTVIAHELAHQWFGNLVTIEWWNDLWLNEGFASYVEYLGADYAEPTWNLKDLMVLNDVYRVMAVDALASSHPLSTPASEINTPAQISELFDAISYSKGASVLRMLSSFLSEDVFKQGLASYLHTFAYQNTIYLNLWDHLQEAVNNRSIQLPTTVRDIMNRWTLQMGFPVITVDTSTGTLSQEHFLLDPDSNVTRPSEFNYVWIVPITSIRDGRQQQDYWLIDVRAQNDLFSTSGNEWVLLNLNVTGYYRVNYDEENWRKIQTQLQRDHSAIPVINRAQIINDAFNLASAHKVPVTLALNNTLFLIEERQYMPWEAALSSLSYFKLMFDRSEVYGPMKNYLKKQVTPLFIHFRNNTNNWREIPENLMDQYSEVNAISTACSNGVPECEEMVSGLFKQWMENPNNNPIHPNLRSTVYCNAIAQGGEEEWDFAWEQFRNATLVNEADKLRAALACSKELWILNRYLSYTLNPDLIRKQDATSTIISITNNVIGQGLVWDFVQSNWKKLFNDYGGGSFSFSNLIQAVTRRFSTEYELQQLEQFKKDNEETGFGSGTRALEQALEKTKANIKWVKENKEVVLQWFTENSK
# test protocol: Inhibition of soluble human APN ectodomain stably expressed in HEK293 GnTI(-) cells using H-Leu-NHMec as substrate preincubated for 10 mins followed by substrate addition and measured for 1 hr by spectrofluorimetric method
# applied conditions: read-out: Ki(app)

Sample records with Ki:
[
  {
    "compound": "CC(C)C[C@@H](C(=O)N[C@H](C(=O)OC1CCCC1)c1ccccc1)[C@H](O)C(=O)NO [TOSEDOSTAT]",
    "val": "1.18 µM"
  },
  {
    "compound": "O=C(NO)C(NCc1ccc(F)c(O)c1)c1ccc(-c2cc(F)c(F)c(F)c2)cc1 (stereo not drawn)",
    "val": "> 1000 µM"
  }
]

Alright, here's another compound for you.
Exercise: Any idea what Ki was measured for CS(=O)(=O)Nc1ccc(C(=O)NC(C(=O)NO)c2ccc(-c3cc(F)c(F)c(F)c3)cc2)cc1 (stereo not drawn) ?
Key: 0.0045 µM

====

# test protocol: Partition coefficient, log D of compound at pH 7.4 by HPLC analysis
# Type: physicochemical
# applied conditions: octanol/water
parameter: logD
Numbers only.

[
  {
    "compound": "CS(=O)(=O)Nc1ccc(C(=O)NC(C(=O)NO)c2ccc(-c3cc(F)c(F)c(F)c3)cc2)cc1 (configuration not stated)",
    "parameter": "logD",
    "val": 2.8
  }
]

Alright, here's another compound for you.
Exercise: Any idea what logD was measured for NS(=O)(=O)Nc1ccc(C(=O)NC(C(=O)NO)c2ccc(-c3cc(F)c(F)c(F)c3)cc2)cc1 (configuration not stated) ?
Key: 2.6

====

# test protocol: Half life in Swiss mouse plasma at 1000 ng/ml by LC-MS analysis
# Type: ADME, cell-free
So I've got a bunch of molecules here, and I need their half-life at 1000 ng/ml values.

[
  {
    "molecule": "NS(=O)(=O)Nc1ccc(C(=O)NC(C(=O)NO)c2ccc(-c3cc(F)c(F)c(F)c3)cc2)cc1 (configuration not stated)",
    "half-life at 1000 ng/ml": "> 17 h"
  }
]

Alright, here's another molecule for you.
Exercise: Any idea what half-life at 1000 ng/ml was measured for CS(=O)(=O)Nc1ccc(C(=O)NC(C(=O)NO)c2ccc(-c3cc(F)c(F)c(F)c3)cc2)cc1 (configuration not stated) ?
Key: > 17 h

====

# target under test: Matrilysin (Homo sapiens)
# Sequence (whole entry): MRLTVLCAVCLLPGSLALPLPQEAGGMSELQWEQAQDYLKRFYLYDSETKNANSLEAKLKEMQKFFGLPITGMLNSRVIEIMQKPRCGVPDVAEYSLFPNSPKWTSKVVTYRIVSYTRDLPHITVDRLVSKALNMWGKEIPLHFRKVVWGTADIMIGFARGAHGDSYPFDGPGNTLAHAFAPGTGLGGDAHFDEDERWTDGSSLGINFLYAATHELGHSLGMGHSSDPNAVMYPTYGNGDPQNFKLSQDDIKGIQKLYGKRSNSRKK
# test protocol: Inhibition of MMP7 (unknown origin) using QF-24 as substrate preincubated for 1 hr followed by substrate addition and measured at 1 min interval for 1 hr by fluorescence assay
The source made the active and inactive calls. No cut-off for these calls is given here.
Your response should consist of one outcome taken from YES for active, NO for inactive

Exercise: Just curious, what result did CC(C)(C)C(=O)NC(C(=O)NO)c1ccc(-c2cc(F)c(F)c(F)c2)cc1 (stereo not given) get here?
Key: NO

Exercise: Just curious, what result did NS(=O)(=O)Nc1ccc(C(=O)NC(C(=O)NO)c2ccc(-c3cc(F)c(F)c(F)c3)cc2)cc1 (stereo not given) get here?
Key: NO

Exercise: Just curious, what result did `CNC(=O)[C@@H](NC(=O)[C@H](CC(C)C)[C@H](O)C(=O)NO)C(C)(C)C` get here?
Key: YES

Exercise: Just curious, what result did CS(=O)(=O)Nc1ccc(C(=O)NC(C(=O)NO)c2ccc(-c3cc(F)c(F)c(F)c3)cc2)cc1 (stereo not given) get here?
Key: NO

Exercise: Just curious, what result did `CC(C)C[C@@H](C(=O)N[C@H](C(=O)OC1CCCC1)c1ccccc1)[C@H](O)C(=O)NO` get here?
Key: YES

====

# test protocol: Cytotoxicity against human AD293 cells measured after 72 hrs by celltitre-blue assay
# Format: cell-based
parameter: CC50 at 72 h
Mention the unit after the number when you answer.

[
  {
    "compound": "CS(=O)(=O)Nc1ccc(C(=O)NC(C(=O)NO)c2ccc(-c3cc(F)c(F)c(F)c3)cc2)cc1 (configuration not stated)",
    "parameter": "CC50 at 72 h",
    "val": "41 µM"
  }
]

Alright, here's another compound for you.
Exercise: Any idea what CC50 at 72 h was measured for NS(=O)(=O)Nc1ccc(C(=O)NC(C(=O)NO)c2ccc(-c3cc(F)c(F)c(F)c3)cc2)cc1 (configuration not stated) ?
Key: 149 µM

====

# test protocol: Half life in mouse liver microsomes at 1 uM in presence of NADPH
# Assay type: ADME, Microsome
So I've got a bunch of compounds here, and I need their half-life at 1 µM values.

[
  {
    "compound": "NS(=O)(=O)Nc1ccc(C(=O)NC(C(=O)NO)c2ccc(-c3cc(F)c(F)c(F)c3)cc2)cc1 (configuration not stated)",
    "val": "> 4.17 h"
  }
]

Alright, here's another compound for you.
Exercise: Any idea what half-life at 1 µM was measured for CS(=O)(=O)Nc1ccc(C(=O)NC(C(=O)NO)c2ccc(-c3cc(F)c(F)c(F)c3)cc2)cc1 (configuration not stated) ?
Key: > 4.17 h

====

# target under test: UniProt P08253
# Sequence (P08253 whole entry): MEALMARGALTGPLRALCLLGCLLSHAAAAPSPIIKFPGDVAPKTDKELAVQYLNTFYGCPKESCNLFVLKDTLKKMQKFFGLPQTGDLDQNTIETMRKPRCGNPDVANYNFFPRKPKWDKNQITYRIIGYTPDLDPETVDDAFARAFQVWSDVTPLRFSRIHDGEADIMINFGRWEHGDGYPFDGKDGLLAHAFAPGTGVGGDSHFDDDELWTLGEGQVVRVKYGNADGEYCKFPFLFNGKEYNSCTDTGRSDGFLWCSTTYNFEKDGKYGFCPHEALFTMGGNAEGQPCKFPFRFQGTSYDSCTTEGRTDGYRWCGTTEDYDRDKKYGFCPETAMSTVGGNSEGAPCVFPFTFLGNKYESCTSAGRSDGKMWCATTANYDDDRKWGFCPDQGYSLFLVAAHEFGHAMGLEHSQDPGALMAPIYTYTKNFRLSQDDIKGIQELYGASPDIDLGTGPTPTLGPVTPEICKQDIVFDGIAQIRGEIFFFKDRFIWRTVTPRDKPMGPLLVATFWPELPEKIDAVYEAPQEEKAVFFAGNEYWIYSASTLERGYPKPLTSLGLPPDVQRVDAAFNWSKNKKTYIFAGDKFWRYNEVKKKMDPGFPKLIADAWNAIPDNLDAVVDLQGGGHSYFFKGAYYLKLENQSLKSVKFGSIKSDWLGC
parameter: IC50 (µM)
Answers are plain numbers, in µM.

Exercise: Any idea what IC50 was measured for CS(=O)(=O)Nc1ccc(C(=O)NC(C(=O)NO)c2ccc(-c3cc(F)c(F)c(F)c3)cc2)cc1 (stereo unspecified) ?
Key: 1.3

====

So I've got a bunch of compounds here, and I need their Ki values.
# test protocol: Inhibition of Plasmodium falciparum M1 aminopeptidase
# applied conditions: read-out: Ki(app)
Answers are plain numbers, in nM.

Sample records with Ki:
[
  {
    "compound": "CC(C)C[C@H](NC(=O)[C@@H](O)[C@H](N)Cc1ccccc1)C(=O)O [UBENIMEX]",
    "quantity unit": "nM",
    "Ki": 1530
  },
  {
    "compound": "CC(C)(C)C(=O)NC(C(=O)NO)c1ccc(-c2cc(F)c(F)c(F)c2)cc1 (stereo not drawn)",
    "quantity unit": "nM",
    "Ki": 331
  }
]

Exercise: Any idea what Ki was measured for CC(C)C[C@@H](C(=O)N[C@H](C(=O)OC1CCCC1)c1ccccc1)[C@H](O)C(=O)NO [TOSEDOSTAT] ?
Key: 6150

====

# target under test: Neutrophil collagenase (Homo sapiens) (UniProt P22894)
# Sequence (P22894 101-467 limits assumed): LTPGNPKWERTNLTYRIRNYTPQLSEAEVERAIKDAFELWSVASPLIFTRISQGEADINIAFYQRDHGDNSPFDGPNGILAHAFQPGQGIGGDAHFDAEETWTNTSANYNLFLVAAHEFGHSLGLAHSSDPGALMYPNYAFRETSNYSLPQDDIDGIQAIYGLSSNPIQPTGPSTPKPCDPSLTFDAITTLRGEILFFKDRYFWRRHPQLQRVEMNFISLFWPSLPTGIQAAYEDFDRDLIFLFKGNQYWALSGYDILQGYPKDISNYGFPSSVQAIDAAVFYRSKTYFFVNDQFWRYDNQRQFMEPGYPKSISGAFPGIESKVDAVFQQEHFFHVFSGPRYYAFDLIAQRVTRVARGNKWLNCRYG
# test protocol: Inhibition of MMP8 (unknown origin) using QF-24 as substrate preincubated for 1 hr followed by substrate addition and measured at 1 min interval for 1 hr by fluorescence assay
Active and inactive are the calls of the source. The calls are words filed in the database; no cut-off is given here.
parameter: inhibition

[
  {
    "compound": "CNC(=O)[C@@H](NC(=O)[C@H](CC(C)C)[C@H](O)C(=O)NO)C(C)(C)C",
    "inhibition": "Active"
  },
  {
    "compound": "CC(C)C[C@@H](C(=O)N[C@H](C(=O)OC1CCCC1)c1ccccc1)[C@H](O)C(=O)NO",
    "inhibition": "Active"
  },
  {
    "compound": "CC(C)(C)C(=O)NC(C(=O)NO)c1ccc(-c2cc(F)c(F)c(F)c2)cc1 (stereo not given)",
    "inhibition": "inactive"
  },
  {
    "compound": "NS(=O)(=O)Nc1ccc(C(=O)NC(C(=O)NO)c2ccc(-c3cc(F)c(F)c(F)c3)cc2)cc1 (stereo not given)",
    "inhibition": "inactive"
  }
]

Alright, here's another compound for you.
Exercise: Any idea what inhibition was measured for CS(=O)(=O)Nc1ccc(C(=O)NC(C(=O)NO)c2ccc(-c3cc(F)c(F)c(F)c3)cc2)cc1 (stereo not given) ?
Key: inactive
